Measured log10(Ki), listed per entry for reference.
measured.on: hNET (Homo sapiens, UniProt P23975)
Construct: expressed in transfected cells; host or cells: HEK-293 derived cell line, stably transfected; membrane preparation
Sequence (P23975 whole entry): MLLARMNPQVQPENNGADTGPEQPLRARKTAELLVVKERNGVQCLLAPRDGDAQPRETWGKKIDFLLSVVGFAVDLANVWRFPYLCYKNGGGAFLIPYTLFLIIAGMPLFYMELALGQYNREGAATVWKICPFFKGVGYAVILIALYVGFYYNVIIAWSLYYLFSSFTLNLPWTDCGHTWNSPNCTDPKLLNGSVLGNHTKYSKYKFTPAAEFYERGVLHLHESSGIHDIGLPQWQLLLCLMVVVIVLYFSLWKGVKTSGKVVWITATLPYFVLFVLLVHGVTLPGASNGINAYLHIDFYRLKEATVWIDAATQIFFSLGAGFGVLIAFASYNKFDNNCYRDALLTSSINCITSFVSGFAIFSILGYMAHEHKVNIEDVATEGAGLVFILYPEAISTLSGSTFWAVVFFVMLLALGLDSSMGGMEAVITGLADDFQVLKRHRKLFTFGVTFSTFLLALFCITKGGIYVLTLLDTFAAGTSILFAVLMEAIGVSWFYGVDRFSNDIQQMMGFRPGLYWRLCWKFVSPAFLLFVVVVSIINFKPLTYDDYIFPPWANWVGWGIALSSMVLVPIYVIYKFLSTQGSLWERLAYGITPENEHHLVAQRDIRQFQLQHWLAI
test.protocol: hNET binding assay (Assay 1)
experimental.parameters: hNET binding; read-out: NET pKi (converted)
Scale type: logarithmic (base 10). Underlying Ki unit: nM.

Consider the worked cases shown below.
N#Cc1cccc([C@H](Oc2c(F)ccc(F)c2Cl)[C@H]2CCNC2)c1 [41-32]    -0.40
Cc1ccc(F)c(OC(c2cc(F)cc(F)c2)C2CCNC2)c1Cl (stereo not shown) [41-28]    -0.50
Cc1ccc(Cl)c(OC(c2cc(F)cc(F)c2)C2CCNC2)c1F (stereo not shown) [41-8]    -0.40
Cc1ccc(F)c(O[C@H](c2ccccc2)[C@@H]2CCNC2)c1Cl [40-29]    -0.70
Fc1cc(F)c(F)c(OC(c2ccccc2Cl)C2CCNC2)c1 (stereo not shown) [39-2]    0.80

Data point: Fc1cc(F)c(F)c(OC(c2ccccc2)C2CCNC2)c1 (stereo not shown) [38-2] ; log10(Ki) = 0.20

log10(Ki) recorded for this molecule, Fc1cc(F)cc(C(Oc2cc(F)cc(F)c2F)C2CCNC2)c1 (stereo not shown) [39-3] , is 0.80

// data source = patent US7888386B2
